Test system: Wistar rats
Assay Info: Subacute toxicity: water and electrolyte balance (osmolality, sodium, potassium, urinary flow)
Assay type: in vivo
Test Conditions: rats, p.o., 14 days at 10% of LD50 (CCl4, APAP: once daily, 3 days); mean ± SEM, n = 6
Measured Endpoint: Urinary Sodium Excretion (µEq/min)

compound="ClC(Cl)(Cl)Cl [CCl4, carbon tetrachloride, reference compound]" recorded_value=0.72
compound="CCOC(=O)c1cn2ccccc2n1 [Compound 1a]" recorded_value=0.29
compound="CCOC(=O)c1nc2ccccn2c1[N+](=O)[O-] [Compound 1b]" recorded_value=0.34

====

System: Wistar rats
Assay Info: Subacute toxicity: water and electrolyte balance (osmolality, sodium, potassium, urinary flow)
Assay type: in vivo
Test Conditions: rats, p.o., 14 days at 10% of LD50 (CCl4, APAP: once daily, 3 days); mean ± SEM, n = 6
Measured U/S Osm ratio accompanies every entry in the list below.
Measured Endpoint: U/S Osm ratio

molecule_smiles=CCOC(=O)c1cn2ccccc2n1 measured_endpoint="U/S Osm ratio" recorded_value=3.02
molecule_smiles=O=C(O)c1nc2ccccn2c1[N+](=O)[O-] measured_endpoint="U/S Osm ratio" recorded_value=3.21
molecule_smiles=N#Cc1nc2ccccn2c1[N+](=O)[O-] measured_endpoint="U/S Osm ratio" recorded_value=3.44

====

Test system: NIH mice
Assay Info: Acute oral toxicity, median lethal dose (LD50)
Format: in vivo
Test Conditions: based on oral LD50, according to GHS [39]
Measured Endpoint: Hazard statement (GHS)

compound=N#Cc1nc2ccccn2c1[N+](=O)[O-] recorded_value="Harmful if swallowed"
compound="N#Cc1cn2ccccc2n1 [Compound 2a, imidazo[1,2-a]pyridine-2-carbonitrile]" recorded_value="Harmful if swallowed"

====

Tested on: NIH mice
Assay Info: Acute oral toxicity, median lethal dose (LD50)
Type: in vivo
Test Conditions: based on oral LD50, according to GHS [39]
Measured Category (GHS acute oral toxicity hazard category) accompanies every entry in the list below.
Measured Endpoint: Category (GHS acute oral toxicity hazard category)

molecule="CCOC(=O)c1nc2ccccn2c1[N+](=O)[O-] [Compound 1b]" recorded_value=5
molecule="O=C(O)c1nc2ccccn2c1[N+](=O)[O-] [Compound 3b]" recorded_value=5
molecule="O=C(O)c1cn2ccccc2n1 [Compound 3a, imidazo[1,2-a]pyridine-2-carboxylic acid]" recorded_value=5
molecule="N#Cc1cn2ccccc2n1 [Compound 2a, imidazo[1,2-a]pyridine-2-carbonitrile]" recorded_value=4
molecule="CCOC(=O)c1cn2ccccc2n1 [Compound 1a]" recorded_value=5
molecule="N#Cc1nc2ccccn2c1[N+](=O)[O-] [Compound 2b]" recorded_value=4

====

Measured Hepatic ROS accompanies every entry in the list below.
Test system: Wistar rats
Assay Info: Hepatic and renal reactive oxygen species (DCF formation)
Type: in vivo
Test Conditions: liver; rats, p.o., 14 days at 10% of LD50 (CCl4, APAP: once daily, 3 days); mean ± SEM, n = 6
Measured Endpoint: Hepatic ROS (nM de DCF/mg protein/h)

compound=O=C(O)c1nc2ccccn2c1[N+](=O)[O-] measured_endpoint="Hepatic ROS" readout_units="nM de DCF/mg protein/h" recorded_value=290.96
compound=CCOC(=O)c1cn2ccccc2n1 measured_endpoint="Hepatic ROS" readout_units="nM de DCF/mg protein/h" recorded_value=317.94
compound="N#Cc1cn2ccccc2n1 [Compound 2a, imidazo[1,2-a]pyridine-2-carbonitrile]" measured_endpoint="Hepatic ROS" readout_units="nM de DCF/mg protein/h" recorded_value=285.53
compound=CCOC(=O)c1nc2ccccn2c1[N+](=O)[O-] measured_endpoint="Hepatic ROS" readout_units="nM de DCF/mg protein/h" recorded_value=285.90
compound="O=C(O)c1cn2ccccc2n1 [Compound 3a, imidazo[1,2-a]pyridine-2-carboxylic acid]" measured_endpoint="Hepatic ROS" readout_units="nM de DCF/mg protein/h" recorded_value=349.63
compound=N#Cc1nc2ccccn2c1[N+](=O)[O-] measured_endpoint="Hepatic ROS" readout_units="nM de DCF/mg protein/h" recorded_value=208.65
compound="ClC(Cl)(Cl)Cl [CCl4, carbon tetrachloride, reference compound]" measured_endpoint="Hepatic ROS" readout_units="nM de DCF/mg protein/h" recorded_value=1434.82
compound="CC(=O)Nc1ccc(O)cc1 [APAP, acetaminophen, reference compound]" measured_endpoint="Hepatic ROS" readout_units="nM de DCF/mg protein/h" recorded_value=1740.28

Reference source: paper PMC9618103
